Data provenance: patent US9745328B2

# TARGET_UNDER_TEST: human FLAP (Homo sapiens (Human), UniProt P20292)
# Sequence (P20292 whole entry): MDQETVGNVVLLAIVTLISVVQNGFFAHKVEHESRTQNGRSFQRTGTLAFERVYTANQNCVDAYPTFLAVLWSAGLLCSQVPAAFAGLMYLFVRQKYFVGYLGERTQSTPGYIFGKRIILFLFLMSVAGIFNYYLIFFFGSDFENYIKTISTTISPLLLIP
# TEST_NAME: FLAP binding assay (HTRF format)
# CONDITION_DESCRIPTION: Table 6 (additional runs), human FLAP wild type
Where a name gives a salt, the structure may show the parent alone.
PROPERTY_NAME: Ki (nM)

[a] Nc1cnc(-c2ccc(-c3ccccc3S(=O)(=O)NC3(CO)CCCC3)cc2F)cn1
[b] Nc1cnc(-c2ccc(-c3ccccc3S(=O)(=O)C3CCCC3)cc2F)cn1
[c] Nc1cnc(-c2ccc(-c3ccccc3S(=O)(=O)N3CCN4CCCC4C3)cc2F)cn1 (racemic)
[d] CCSc1ccccc1-c1ccc(-c2cnc3[nH]ccc3n2)c(F)c1
[e] CS(=O)(=O)NS(=O)(=O)c1ccccc1-c1ccc(-c2cnc(N)cn2)c(F)c1
I would appreciate it if you could sort these 5 molecules by Ki, starting from the smallest number. List labels; respect the requested ordering.
a, b, d, c, e

[1] CC(C)(NS(=O)(=O)c1ccccc1-c1ccc(-c2cnc(N)nc2)c(F)c1)C(F)(F)F [Example 296, trifluoroacetic acid salt]
[2] NS(=O)(=O)c1ccccc1-c1ccc(-c2cnc3[nH]ccc3c2)c(F)c1
Would you kindly point out which of 1 and 2 has the smaller Ki figure? Mark your answer with the label of the selected entry.
1
(1: 3.1 nM, 2: 13.2 nM)

---

# TARGET_UNDER_TEST: human FLAP (Homo sapiens (Human), UniProt P20292)
# TEST_NAME: FLAP binding assay (HTRF format)
# CONDITION_DESCRIPTION: Table 6 (additional runs), human FLAP wild type
Structures can show the parent of a compound that is named as a salt.
PROPERTY_NAME: Ki (nM)

Known Ki results, listed for orientation:
1. Nc1cnc(-c2ccc(-c3ccccc3S(=O)(=O)N3CCC(CO)CC3)cc2F)cn1 [Example 68] = 1.1
2. Nc1cnc(-c2ccc(-c3ccccc3S(=O)(=O)NC3CC3)cc2F)cn1 [Example 89] = 4.9
3. CC(C)(CO)NS(=O)(=O)c1ccccc1-c1ccc(-c2cnc(N)cn2)c(F)c1 [Example 100] = 0.8
4. Nc1cnc(-c2ccc(-c3ccccc3S(=O)(=O)NCCCO)cc2F)cn1 [Example 80] = 3.9
5. CC(C)(C)OC(=O)N1CC(O)(CNS(=O)(=O)c2ccccc2-c2ccc(-c3ccc(N)nc3)c(F)c2)C1 [Example 357] = 114
6. Nc1cnc(-c2ccc(-c3ccccc3Sc3cc(N)ncn3)cc2F)cn1 [Example 215, hydrochloride] = 2.4

[P] C[C@H](NS(=O)(=O)c1ccccc1-c1ccc(-c2cnc(N)cn2)c(F)c1)C(O)c1ccccc1 (stereo in doubt) [Example 83]
[Q] CC(C)(NS(=O)(=O)c1ccccc1-c1ccc(-c2ccc(N)nc2)c(F)c1)C(F)(F)F [Example 350]
[R] Nc1cnc(-c2ccc(-c3ccccc3S(=O)(=O)N3CCC(O)(C(F)(F)F)CC3)cc2F)cn1 [Example 55]
[S] N#CCCN(C1CC1)S(=O)(=O)c1ccccc1-c1ccc(-c2cnc(N)cn2)c(F)c1 [Example 172]
[T] CS(=O)(=O)N1CCN(S(=O)(=O)c2ccccc2-c2ccc(-c3cnc(N)cn3)c(F)c2)CC1 [Example 56]
List by increasing Ki. List labels; respect the requested ordering.
P, R, Q, S, T

---

# TARGET_UNDER_TEST: human FLAP (Homo sapiens (Human), UniProt P20292)
# TEST_NAME: FLAP binding assay (HTRF format)
# CONDITION_DESCRIPTION: human FLAP wild type, Table 6 (additional runs)
PROPERTY_NAME: Ki (µM)

Known Ki results, listed for orientation:
1) CC(C)S(=O)(=O)c1nc(C(F)(F)F)ccc1-c1ccc(-c2cnc(N)nc2)c(F)c1 = 0.0184
2) Cc1cc(N)nc(Oc2ccccc2-c2ccc(-c3cnc(N)cn3)c(F)c2)n1 = 0.0164
3) Nc1cnc(-c2ccc(-c3ccccc3OCC(=O)O)cc2F)cn1 = 1.91
4) Nc1cnc(-c2ccc(-c3cccnc3S(=O)(=O)c3cccnc3)cc2F)cn1 = 0.077
5) Fc1cc(-c2cccnc2OCC2CC2)ccc1-c1cnc2[nH]ccc2n1 = 0.0141

[1] CC(C)(C)NS(=O)(=O)c1ccccc1-c1ccc(-c2cnc(N)cn2)cc1F
[2] C[C@@H](NS(=O)(=O)c1ccccc1-c1cnc(-c2cnc(N)nc2)c(F)c1)C(F)(F)F
[3] COc1ccccc1-c1ccc(-c2cnc(N)cn2)c(F)c1
[4] N#CCn1cc(-c2ccccc2-c2ccc(-c3cnc(N)nc3)c(F)c2)cn1
[5] Nc1cnc(-c2ccc(-c3ccccc3Oc3ccc(C(=O)O)cc3)cc2F)cn1
List by increasing Ki. List labels; respect the requested ordering.
5, 1, 2, 3, 4
(5: 0.0007 µM, 1: 0.0139 µM, 2: 0.0342 µM, 3: 0.073 µM, 4: 0.17 µM)

[A] C[C@H](CO)NS(=O)(=O)c1ccccc1-c1cnc(-c2cnc(N)nc2)c(F)c1
[B] CC(=O)N1CCC(S(=O)(=O)c2nc(C(F)(F)F)ccc2-c2ccc(-c3cnc(N)nc3)c(F)c2)CC1
Which is greater in Ki, the first item A or the second item B ? Mark your answer with the label of the selected entry.
B
(B: 0.166 µM, A: 0.076 µM)

---

# TARGET_UNDER_TEST: UniProtKB P20292
# TEST_NAME: FLAP binding assay (HTRF format)
# CONDITION_DESCRIPTION: Table 6 (additional runs), human FLAP wild type
PROPERTY_NAME: Ki (nM)

1. Nc1cnc(-c2ccc(-c3ccccc3S(=O)(=O)N3CCOCC3)cc2F)cn1 = 6.5

[1] CNS(=O)(=O)c1cc(C(F)(F)F)ccc1-c1ccc(-c2cnc(N)nc2)c(F)c1
[2] Nc1cnc(-c2ccc(-c3ccccc3S(=O)(=O)N3CCC(N)CC3)cc2F)cn1
[3] N#CCCN1CCN(S(=O)(=O)c2ccccc2-c2ccc(-c3cnc(N)cn3)c(F)c2)CC1
# desc sort on Ki across 3 compounds List labels; respect the requested ordering.
2, 1, 3

---

# TARGET_UNDER_TEST: human FLAP (Homo sapiens (Human))
# TEST_NAME: FLAP binding assay (HTRF format)
# CONDITION_DESCRIPTION: Table 6 (additional runs), human FLAP wild type
pKi: −log10 of the molar value. Counter-ions that a name gives are not always drawn.
PROPERTY_NAME: pKi

Known pKi results, listed for orientation:
1. Nc1cnc(-c2ccc(-c3ccccc3S(=O)(=O)NCC3CCC3)cc2F)cn1 = 8.82
2. Nc1cnc(-c2ccc(-c3ccccc3Sc3cnccn3)cc2F)cn1 [Example 218, hydrochloride] = 8.48
3. CC(C)(CO)NS(=O)(=O)c1ccccc1-c1ccc(-c2cnc(N)nc2)c(F)c1 [Example 280, trifluoroacetic acid salt] = 8.48

[a] CCN1CCCC[C@@H](NS(=O)(=O)c2ccccc2-c2ccc(-c3cnc(N)cn3)c(F)c2)C1=O
[b] C[C@H](NS(=O)(=O)c1ccccc1-c1ccc(-c2cnc(N)nc2)c(F)c1)C(F)(F)F [Example 297, trifluoroacetic acid salt]
[c] CC1(NS(=O)(=O)c2ccccc2-c2ccc(-c3ccc(N)nc3)c(F)c2)CCC1
[d] Nc1ncc(-c2ccc(-c3ccccc3S(=O)(=O)N3CCN(C4CC4)CC3)cc2F)cn1 [Example 281, trifluoroacetic acid salt]
List by increasing pKi. List labels; respect the requested ordering.
d, a, b, c
(d: 7.22, a: 7.58, b: 8.49, c: 8.85)

---

# TARGET_UNDER_TEST: human FLAP (Homo sapiens (Human), UniProt P20292)
# TEST_NAME: FLAP binding assay (HTRF format)
# CONDITION_DESCRIPTION: Table 6 (additional runs), human FLAP wild type
Where a name gives a salt, the structure may show the parent alone.
PROPERTY_NAME: Ki (nM)

1. CC(C)(O)CNS(=O)(=O)c1ccccc1-c1ccc(-c2cnc(N)nc2)c(F)c1 [Example 272, trifluoroacetic acid salt] = 26.9
2. Nc1cnc(-c2ccc(-c3ccccc3S(=O)(=O)N[C@@H]3CCCC[C@@H]3CO)cc2F)cn1 (racemic) = 0.7
3. Nc1cnc(-c2ccc(-c3ccccc3S(=O)(=O)NCC3(O)CCCCC3)cc2F)cn1 = 1.6
4. Nc1cnc(-c2ccc(-c3ccccc3S(=O)(=O)N3CC[C@H](O)C3)cc2F)cn1 = 8.9

[P] CC(C)(O)CNS(=O)(=O)c1ccccc1-c1ccc(-c2cnc(N)cn2)c(F)c1
[Q] Nc1cnc(-c2ccc(-c3ccccc3S(=O)(=O)N3CCC(F)(F)C3)cc2F)cn1
[R] CN(C)S(=O)(=O)c1ccccc1-c1ccc(-c2cnc(N)cn2)c(F)c1
[S] Nc1cnc(-c2ccc(-c3ccccc3S(=O)(=O)N[C@@H](CO)[C@@H](O)c3ccccc3)cc2F)cn1
# desc sort on Ki across 4 compounds List labels; respect the requested ordering.
R, Q, P, S

[I] Nc1cnc(-c2ccc(-c3ccccc3S(=O)(=O)N[C@H](c3ccccc3)C(F)(F)F)cc2F)cn1
[II] Nc1cnc(-c2ccc(-c3ccccc3S(=O)(=O)N3CCN(C(=O)C4CC4)CC3)cc2F)cn1
[III] CCCS(=O)(=O)c1ccccc1-c1ccc(-c2cnc(N)cn2)c(F)c1
# desc sort on Ki across 3 compounds List labels; respect the requested ordering.
III, II, I
(III: 48.3 nM, II: 4.6 nM, I: 1.8 nM)

[P] CC(C)C[C@@H](CO)NS(=O)(=O)c1ccccc1-c1ccc(-c2cnc(N)cn2)c(F)c1
[Q] CNS(=O)(=O)c1ccccc1-c1ccc(-c2cnc3[nH]ccc3n2)c(F)c1
[R] Nc1cnc(-c2ccc(-c3ccccc3S(=O)(=O)NC3CC4CCC3C4)cc2F)cn1 (racemic)
List by increasing Ki. List labels; respect the requested ordering.
Q, R, P
(Q: 1.3 nM, R: 2.7 nM, P: 5.3 nM)

[a] Nc1cnc(-c2ccc(-c3ccccc3S(=O)(=O)N3CC[C@@H](O)C3)cc2F)cn1
[b] COC[C@H](C)NS(=O)(=O)c1ccccc1-c1ccc(-c2cnc(N)cn2)c(F)c1
Which is greater in Ki, the first item a or the second item b ? Mark your answer with the label of the selected entry.
a

[a] CSc1ccc(F)cc1-c1ccc(-c2cnc3[nH]ccc3n2)c(F)c1
[b] CC1(NS(=O)(=O)c2ccccc2-c2ccc(-c3cnc(N)cn3)c(F)c2)COC1
[c] Nc1cnc(-c2ccc(-c3ccccc3S(=O)(=O)N3CCCC(CCO)C3)cc2F)cn1 (racemic)
[d] Nc1cnc(-c2ccc(-c3ccccc3S(=O)(=O)N3CCCCC3)cc2F)cn1
[e] Nc1cnc(-c2ccc(-c3ccccc3Sc3ncncc3N)cc2F)cn1 [Example 217, hydrochloride]
# desc sort on Ki across 5 compounds List labels; respect the requested ordering.
a, d, c, e, b

[P] CCCS(=O)(=O)Nc1ccccc1-c1ccc(-c2cnc(N)cn2)c(F)c1
[Q] Nc1cnc(-c2ccc(-c3ccccc3S(=O)(=O)N3CCC(O)CC3)cc2F)cn1
Which is greater in Ki, the first item P or the second item Q ? Mark your answer with the label of the selected entry.
P

[a] CS(=O)(=O)Nc1ccccc1-c1ccc(-c2cnc(N)cn2)c(F)c1
[b] C[C@H](O)CNS(=O)(=O)c1ccccc1-c1ccc(-c2cnc(N)cn2)c(F)c1
[c] NC1CCN(S(=O)(=O)c2ccccc2-c2ccc(-c3cnc4c(c3)OCCN4)c(F)c2)CC1
[d] CC(NS(=O)(=O)c1ccccc1-c1ccc(-c2cnc3[nH]ccc3n2)c(F)c1)C(F)(F)F (racemic)
[e] Nc1ncc(-c2ccc(-c3ccccc3S(=O)(=O)N3CC(O)(C(F)(F)F)C3)cc2F)cn1
# desc sort on Ki across 5 compounds List labels; respect the requested ordering.
a, c, b, e, d
(a: 178 nM, c: 13.1 nM, b: 6.1 nM, e: 1.3 nM, d: 0.5 nM)

[I] CN[C@@H]1CCN(S(=O)(=O)c2ccccc2-c2ccc(-c3cnc(N)cn3)c(F)c2)C1
[II] Nc1cnc(-c2ccc(-c3ccccc3S(=O)(=O)N[C@H]3CCCC[C@@H]3O)cc2F)cn1 (racemic)
Would you kindly point out which of I and II has the smaller Ki figure? Mark your answer with the label of the selected entry.
II
(II: 1.1 nM, I: 141 nM)
